Taken from ChEMBL document CHEMBL4680212.

- ASSAY SUMMARY: AUC in CD-1 mouse at 10 mg/kg, po administered as single dose via gavage by LC-MS/MS analysis
- Type: ADME, organism-based
- Design: dose 10 mg/kg
- MEASUREMENT CONTEXT: in vivo
Could you label it true if measured AUC is 40 µM·h or higher, and false otherwise?

Please review the entries below; each comes with its answer.
SMILES ENTRY	CLASS LABEL
COCCOc1cnc(Sc2cc(C)c(-c3csc(NC(=O)c4ccncc4)n3)c(C)c2)cn1.Cc1ccc(S(=O)(=O)O)cc1	true
COCCOc1cnc(Sc2cc(C)c(-c3csc(NC(=O)c4ccncc4)n3)c(C)c2)cn1.CS(=O)(=O)O	true
COCCOc1cnc(Sc2cc(C)c(-c3csc(NC(=O)c4ccncc4)n3)c(C)c2)cn1	true
COCCOc1cnc(Sc2cc(C)c(-c3csc(NC(=O)c4ccncc4)n3)c(C)c2)cn1.Cl	true

Record Cc1cc(Sc2cnc(OCCN(C)C)cn2)cc(C)c1-c1csc(NC(=O)c2ccncc2)n1 ; criterion: AUC no lower than 40 µM·h. Met? false

* * *

- ASSAY SUMMARY: Drug level in tumor of human Huh-7 cells xenografted SCID mouse at 10 mg/kg, iv measured after 0.5 hrs by LC-MS/MS analysis
- Type: ADME, organism-based, Neoplasm
- MEASUREMENT CONTEXT: read-out: Drug uptake
READOUT TYPE: concentration at 0.5 h
Record the result as a number with its unit.

Entry under review: COCCOc1cnc(Sc2cc(C)c(-c3csc(NC(=O)c4ccncc4)n3)c(C)c2)cn1 . Reported concentration at 0.5 h? 3.38 µM

* * *

- ASSAY SUMMARY: Drug level in tumor of human Huh-7 cells xenografted SCID mouse at 10 mg/kg, iv measured after 24 hrs by LC-MS/MS analysis
- Assay type: ADME, organism-based, Neoplasm
- MEASUREMENT CONTEXT: read-out: Drug uptake
READOUT TYPE: concentration at 24 h (nM)
Provide only the numeric value, understood in nM.

Entry under review: COCCOc1cnc(Sc2cc(C)c(-c3csc(NC(=O)c4ccncc4)n3)c(C)c2)cn1 . Reported concentration at 24 h? 59.9

* * *

Quick list: bioavailability per entry.
- ASSAY SUMMARY: Oral bioavailability in CD-1 mouse at 10 mg/kg administered as single dose via gavage by LC-MS/MS analysis
- Format: ADME, organism-based
- MEASUREMENT CONTEXT: in vivo
Provide only the numeric value, understood in %.

// solved cases for bioavailability follow
SMILES ENTRY	UOM	bioavailability
COCCOc1cnc(Sc2cc(C)c(-c3csc(NC(=O)c4ccncc4)n3)c(C)c2)cn1	%	50.6
COCCOc1cnc(Sc2cc(C)c(-c3csc(NC(=O)c4ccncc4)n3)c(C)c2)cn1.Cl	%	84
COCCOc1cnc(Sc2cc(C)c(-c3csc(NC(=O)c4ccncc4)n3)c(C)c2)cn1.Cc1ccc(S(=O)(=O)O)cc1	%	77.4

Attention now shifts to the item below.
Entry under review: COCCOc1cnc(Sc2cc(C)c(-c3csc(NC(=O)c4ccncc4)n3)c(C)c2)cn1.CS(=O)(=O)O . Reported bioavailability? 58.5

* * *

- ASSAY SUMMARY: Half life in Beagle dog at 10 mg/kg, po administered as single dose via gavage by LC-MS/MS analysis
- Type: ADME, organism-based, Canis lupus familiaris
- MEASUREMENT CONTEXT: in vivo
READOUT TYPE: half-life
Record the result as a number with its unit.

Entry under review: COCCOc1cnc(Sc2cc(C)c(-c3csc(NC(=O)c4ccncc4)n3)c(C)c2)cn1.Cc1ccc(S(=O)(=O)O)cc1 . Reported half-life? 4.53 h
